assay: Solubility in ethanol and in MCT oil; format: physicochemical; details: ethanol, organic solvent or mixture; read-out: solubility in ethanol
VALUE_TYPE: solubility

Value of solubility reported for the molecule C[C@]12CC[C@H](O)CC1=CC[C@@H]1[C@@H]2CC[C@]2(C)C(=O)CC[C@@H]12 [DHEA] is ~150 mg/mL

---

assay: Solubility in ethanol and in MCT oil; type: physicochemical; conditions: medium chain triglyceride (MCT) oil, oil or lipid; MCT oil; read-out: solubility in MCT oil
VALUE_TYPE: solubility

Value of solubility reported for the molecule C[C@]12CC[C@H](O)CC1=CC[C@@H]1[C@@H]2CC[C@]2(C)C(=O)CC[C@@H]12 [DHEA] is ~10000 µg/mL
